# Tested on: SR
# ASSAY NAME: NCI tumour cell line growth inhibition, 48 h
Calls of active or inactive are those of the source. Cut-off read from the data, not from the text of the source: active = GI50 up to about 1.1 µM and inactive = higher.
The categories you may choose from are active, inactive

# input For CC(C)C(C/C=C1\CC(CO)(COC(=O)CC(C(C)C)C(C)C)OC1=O)C(C)C (stereo not given) , what call appears in the results of this test?
# output inactive

# input For COC(=O)C(=O)OC1(C(C)=O)CC2(c3ccccc3)OC1(c1ccccc1)c1ccccc12 (stereo not given) , what call appears in the results of this test?
# output inactive

# input For CCOc1c2ccsc2c(OCC)c2ccsc12 , what call appears in the results of this test?
# output inactive

# input For Nc1cc2ncnn2c(SCC(=O)N/N=C/C(Br)=C\c2ccccc2)n1 , what call appears in the results of this test?
# output inactive

# input For CCCCCCCCCCCCCCCCNc1nc(=O)n(C2CC(O)C(COP(=O)(O)OC3CC(n4cc(F)c(=O)[nH]c4=O)OC3CO)O2)cc1F (stereo not given) , what call appears in the results of this test?
# output active

# input For CN(C)CCC1(C2=CCCC2)CC/C(=C\c2ccc(Cl)cc2)C1=O (stereo not given) , what call appears in the results of this test?
# output inactive

# input For O=C(NCCOC(=O)OCCNC(=O)NC1CCCCC1)NC1CCCCC1 , what call appears in the results of this test?
# output inactive

# input For CC(=O)N1C(c2[nH]c3ccccc3c2Cc2ccccc2)CCN1c1ccccc1 (stereo not given) , what call appears in the results of this test?
# output inactive

# input For O=C1c2c(ccc3c2CCC3)CC1Cc1ccc2c(c1)CCC2 (stereo not given) , what call appears in the results of this test?
# output inactive

# input For COC(=O)C(Cc1ccc(N(C)C)cc1)(NC(=O)c1ccccc1)P(=O)(OC)OC (stereo not given) , what call appears in the results of this test?
# output inactive

###

Exercise: state measured GI50 for each of the compounds provided.
# Test system: A549
# ASSAY NAME: NCI tumour cell line growth inhibition, 48 h
Active and inactive are the calls of the source. No stated cut-off is given here; in the data, active = GI50 up to about 1.1 µM and inactive = higher.

# input Sample CC/C(Cl)=N\OC(=O)Nc1ccc(F)cc1F — what was its GI50?
# output 19.9 µM (inactive)

# input Sample Cc1ccnc2nc(N)ccc12 — what was its GI50?
# output > 100 µM (inactive)

# input Sample O=C(CC/C=C(/CS(=O)(=O)c1ccccc1)S(=O)(=O)c1ccccc1)c1ccccc1 — what was its GI50?
# output > 100 µM (inactive)

# input Sample CC1=C2C(=O)c3ccccc3C(=O)[C@H]2C[C@@H](N2CCCC2=O)O1 — what was its GI50?
# output 43.1 µM (inactive)

# input Sample C#CCNCC(=O)O — what was its GI50?
# output > 100 µM (inactive)

# input Sample CCc1n[nH]c(=O)n1-c1ccncc1 — what was its GI50?
# output > 100 µM (inactive)

# input Sample Cn1cnc(N)c(N=O)c1=O — what was its GI50?
# output > 10 µM (inactive)

# input Sample Cc1ccc(S(=O)(=O)N(CCN2C(=O)c3ccccc3C2=O)c2cc3c4c(c2)Oc2cc(N(CCN5C(=O)c6ccccc6C5=O)S(=O)(=O)c5ccc(C)cc5)cc5c2C4(C)c2c(cc(N(CCN4C(=O)c6ccccc6C4=O)S(=O)(=O)c4ccc(C)cc4)cc2O5)O3)cc1 — what was its GI50?
# output > 100 µM (inactive)

# input Sample COc1ccc(/N=N/c2c(-c3ccccc3)nn(C(=O)CC(=O)Nc3ccccc3Cl)c2-c2ccccc2)cc1 — what was its GI50?
# output > 100 µM (inactive)

# input Sample O=c1c(Cl)c(Cl)cnn1CCc1ccncc1 — what was its GI50?
# output 37.9 µM (inactive)
